- Tested on: PC-3 human prostate cancer cells
- Assay Remarks: MTT Cell Proliferation Assay
- Format: cell-based
- Experimental Setup: 10.0 uM, 72 hours, read-out: Percent of Control PC-3
Each entry gets false (0) if its activity at 10 µM stays under 50%, and true (1) if its activity at 10 µM is 50% or above.

Mol: COc1cc(C(=O)N2CCC3(CC2)NC(=O)c2cc(N4CCOCC4)ccc2O3)nc2c(OC)cccc12
Assigned Category: false (0)

Mol: COc1cc(C(=O)N2CCC3(CC2)NC(=O)c2cc(C(C)C)ccc2O3)nc2c(OC)cccc12
Assigned Category: false (0)

Mol: CCOc1ccc2c(c1)C(=O)NC1(CCN(C(=O)c3cc(OC)c4cccc(OC)c4n3)CC1)O2
Assigned Category: true (1)

Mol: COc1ccc2c(c1)C(=O)NC1(CCN(C(=O)c3cc(OC)c4cccc(OC)c4n3)CC1)O2
Assigned Category: false (0)

Mol: CCOc1ccc2c(c1)C(=O)NC1(CCN(C(=O)c3[nH]c4c(OC)cccc4c3C)CC1)O2
Assigned Category: true (1)

Mol: COc1ccc2c(c1)C(=O)NC1(CCN(C(=O)c3cc(OC)c4cccc(OC)c4n3)CC1)N2
Assigned Category: false (0)

Mol: COc1cc(C(=O)N2CCC3(CC2)NC(=O)c2cc(OC(C)C)ccc2O3)nc2c(OC)cccc12
Assigned Category: true (1)

====

- Target Under Test: hACC2 (Homo sapiens, UniProt O00763)
- Construct: delete amino acids 1-148 and add Met-Gly in front of Lys149 in the final product; His tag (C)
- Sequence (O00763 149-2458 limits assumed): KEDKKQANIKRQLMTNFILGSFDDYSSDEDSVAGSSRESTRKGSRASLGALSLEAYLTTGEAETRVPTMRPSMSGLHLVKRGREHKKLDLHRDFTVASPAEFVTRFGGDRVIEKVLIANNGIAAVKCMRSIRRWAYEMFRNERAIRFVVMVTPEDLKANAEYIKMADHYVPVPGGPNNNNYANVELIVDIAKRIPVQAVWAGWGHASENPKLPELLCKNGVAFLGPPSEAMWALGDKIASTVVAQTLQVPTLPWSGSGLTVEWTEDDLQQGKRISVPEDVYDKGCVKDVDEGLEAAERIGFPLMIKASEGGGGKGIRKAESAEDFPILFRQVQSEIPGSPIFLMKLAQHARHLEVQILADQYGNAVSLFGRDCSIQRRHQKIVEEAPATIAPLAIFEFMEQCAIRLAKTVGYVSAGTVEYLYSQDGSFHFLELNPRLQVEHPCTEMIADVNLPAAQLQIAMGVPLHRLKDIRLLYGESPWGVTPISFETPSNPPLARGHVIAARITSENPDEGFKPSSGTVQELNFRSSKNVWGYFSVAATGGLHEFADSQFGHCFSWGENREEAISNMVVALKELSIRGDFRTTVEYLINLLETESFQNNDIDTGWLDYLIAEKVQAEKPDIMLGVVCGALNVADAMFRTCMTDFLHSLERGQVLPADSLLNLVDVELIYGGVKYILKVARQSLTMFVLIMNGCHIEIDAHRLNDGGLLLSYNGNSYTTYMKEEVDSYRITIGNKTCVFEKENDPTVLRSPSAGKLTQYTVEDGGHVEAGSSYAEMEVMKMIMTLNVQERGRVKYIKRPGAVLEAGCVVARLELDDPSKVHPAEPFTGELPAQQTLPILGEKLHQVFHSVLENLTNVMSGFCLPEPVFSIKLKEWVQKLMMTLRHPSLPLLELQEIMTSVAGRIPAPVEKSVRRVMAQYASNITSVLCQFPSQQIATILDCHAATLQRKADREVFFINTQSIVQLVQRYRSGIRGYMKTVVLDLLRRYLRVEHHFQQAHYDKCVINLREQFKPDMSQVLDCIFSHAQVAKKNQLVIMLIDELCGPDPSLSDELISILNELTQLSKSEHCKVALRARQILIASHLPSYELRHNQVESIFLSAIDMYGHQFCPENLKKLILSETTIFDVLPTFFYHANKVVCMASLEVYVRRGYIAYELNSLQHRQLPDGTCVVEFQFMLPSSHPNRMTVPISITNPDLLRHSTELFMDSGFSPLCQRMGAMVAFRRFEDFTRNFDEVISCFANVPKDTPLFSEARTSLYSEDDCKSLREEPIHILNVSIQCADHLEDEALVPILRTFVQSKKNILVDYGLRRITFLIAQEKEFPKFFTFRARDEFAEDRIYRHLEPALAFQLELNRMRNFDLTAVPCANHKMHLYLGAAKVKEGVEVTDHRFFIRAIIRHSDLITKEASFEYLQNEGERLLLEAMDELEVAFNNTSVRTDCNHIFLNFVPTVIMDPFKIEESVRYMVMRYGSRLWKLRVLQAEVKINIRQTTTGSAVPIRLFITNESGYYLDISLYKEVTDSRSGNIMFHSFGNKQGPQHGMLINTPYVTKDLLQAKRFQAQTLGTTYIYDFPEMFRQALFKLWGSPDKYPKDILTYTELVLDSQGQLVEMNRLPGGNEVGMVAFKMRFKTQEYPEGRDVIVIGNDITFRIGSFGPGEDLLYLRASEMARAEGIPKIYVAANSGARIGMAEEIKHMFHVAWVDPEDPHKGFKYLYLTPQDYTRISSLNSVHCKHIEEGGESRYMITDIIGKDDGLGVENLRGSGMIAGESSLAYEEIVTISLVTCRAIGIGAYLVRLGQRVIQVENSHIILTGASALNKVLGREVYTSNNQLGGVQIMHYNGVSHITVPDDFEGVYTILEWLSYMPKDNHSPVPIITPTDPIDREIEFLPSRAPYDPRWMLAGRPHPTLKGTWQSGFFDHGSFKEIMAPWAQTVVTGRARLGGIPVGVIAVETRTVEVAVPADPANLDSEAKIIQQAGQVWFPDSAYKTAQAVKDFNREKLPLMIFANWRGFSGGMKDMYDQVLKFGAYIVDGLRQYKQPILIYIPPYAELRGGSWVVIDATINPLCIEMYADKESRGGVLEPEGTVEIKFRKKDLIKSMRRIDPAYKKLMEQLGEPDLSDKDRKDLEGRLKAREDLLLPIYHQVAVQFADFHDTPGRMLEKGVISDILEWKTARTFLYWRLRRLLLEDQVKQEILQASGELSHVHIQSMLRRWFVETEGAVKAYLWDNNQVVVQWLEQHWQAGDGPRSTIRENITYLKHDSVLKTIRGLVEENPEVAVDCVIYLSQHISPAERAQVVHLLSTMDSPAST
- Assay Remarks: [14C]bicarbonate incorporation assay, overall ACC activity
- Experimental Setup: recombinant hACC2, overall ACC activity
Overview of reported IC50 across a group of compounds:

Mol: COc1cc(C(=O)N2CCC3(CC2)NC(=O)c2cc(NC(C)=O)ccc2O3)cc2c(OC)cccc12
Target Under Test: hACC2 (Homo sapiens, UniProt O00763)
IC50: 3 nM
//
Mol: COc1cc(C(=O)N2CCC3(CC2)NC(=O)c2cc4ccccc4cc2O3)nc2c(OC)cccc12
Target Under Test: hACC2 (Homo sapiens, UniProt O00763)
IC50: 5 nM
//
Mol: Cc1c(C(=O)N2CCC3(CC2)NC(=O)c2ccccc2O3)[nH]c2ccc(F)cc12
Target Under Test: hACC2 (Homo sapiens, UniProt O00763)
IC50: 2000 nM
//
Mol: COc1ccc2c(c1)C(=O)NC1(CCN(C(=O)c3cc(OC)c4cccc(SC)c4n3)CC1)O2
Target Under Test: hACC2 (Homo sapiens, UniProt O00763)
IC50: 48 nM
//
Mol: COc1cc(C(=O)N2CCC3(CC2)NC(=O)c2cc(C)ccc2O3)cc2c(OC)cccc12
Target Under Test: hACC2 (Homo sapiens, UniProt O00763)
IC50: 7 nM

====

- Target Under Test: hACC1 (Homo sapiens, UniProt Q13085)
- Construct: PCR primers were designed for full-length hACC1 and hACC2 using GenBank submissions AY237919 and AJ575592, respectively; His tag (C)
- Assay Remarks: [14C]bicarbonate incorporation assay, overall ACC activity
- Experimental Setup: recombinant hACC1, overall ACC activity
The label YES is reserved for IC50 strictly under 0.4 µM; NO covers values equal to or above it.

Mol: COc1cc(C(=O)N2CCC3(CC2)NC(=O)c2cc(N4CCOCC4)ccc2O3)nc2c(OC)cccc12
Assigned Category: YES

Mol: COc1cc(C(=O)N2CCC3(CC2)NC(=O)c2cc(C)ccc2N3)cc2c(OC)cccc12
Assigned Category: YES

Mol: COc1cccc2c(C)c(C(=O)N3CCC4(CC3)NC(=O)c3cc(OC(C)C)ccc3O4)[nH]c12
Assigned Category: YES

Mol: COc1cc(C(=O)N2CCC3(CC2)NC(=O)c2cc(OC(F)(F)F)ccc2O3)cc2c(SC)cccc12
Assigned Category: YES

Mol: COc1cc2c(OC)cccc2cc1C(=O)N1CCC2(CC1)NC(=O)c1cc(Cl)ccc1O2
Assigned Category: NO

Mol: COc1ccc(OC)c2c1cc(C(=O)N1CCC3(CC1)NC(=O)c1cc(Br)ccc1O3)n2C
Assigned Category: NO

Mol: CCOc1ccc2c(c1)C(=O)NC1(CCN(C(=O)c3[nH]c4c(OC)cccc4c3C)CC1)O2
Assigned Category: YES

Mol: COc1cc(C(=O)N2CCC3(CC2)NC(=O)c2cc(Br)ccc2N3)nc2c(OC)cccc12
Assigned Category: NO

Mol: COc1cc(C(=O)N2CCC3(CC2)NC(=O)c2cc(C)c(C)cc2O3)nc2c(OC)cccc12
Assigned Category: YES

Mol: COc1cc(C(=O)N2CCC3(CC2)NC(=O)c2cc(NC(C)=O)ccc2O3)nc2c(OC)cccc12
Assigned Category: YES

Mol: COc1cc(C(=O)N2CCC3(CC2)NC(=O)c2cc(OC(F)(F)F)ccc2N3)cc2c(OC)cccc12
Assigned Category: YES

Mol: O=C1NC2(CCN(C(=O)c3ccc4[nH]cnc4c3)CC2)Oc2ccc(Br)cc21
Assigned Category: NO

Mol: COc1cc(C(=O)N2CCC3(CC2)NC(=O)c2cc(N4CCOCC4)ccc2O3)cc2c(OC)cccc12
Assigned Category: YES

Mol: COc1ccc2c(c1)C(=O)NC1(CCN(C(=O)c3cc4c(OC)ccc(OC)c4n3C)CC1)O2
Assigned Category: NO

Mol: COc1ccc2cc3c(cc2c1)C(=O)NC1(CCN(C(=O)c2[nH]c4c(OC)cccc4c2C)CC1)O3
Assigned Category: YES

====

- Target Under Test: hACC1 (Homo sapiens)
- Construct: PCR primers were designed for full-length hACC1 and hACC2 using GenBank submissions AY237919 and AJ575592, respectively; His tag (C)
- Assay Remarks: [14C]bicarbonate incorporation assay, overall ACC activity
- Experimental Setup: recombinant hACC1, overall ACC activity
- Description: In vitro IC50 values of human ACC were determined using recombinant enzyme produced by standard procedures. For example, full-length cDNAs for both the human isoforms (hACC1 and hACC2) were each cloned and expressed as a recombinant protein using a baculovirus system. Double stranded cDNA from human fetal liver (Quick-Clone cDNA, cat. #7171-1) was purchased from BD/Clontech (Mt. View, Calif.). […]
pIC50: −log10 of the molar value.
Definition: the class of an entry is the range in lower range = under 6, middle range = from 6 up to 7, upper range = 7 and over that contains its pIC50.

Mol: COc1cc(C(=O)N2CCC3(CC2)NC(=O)c2cc(-c4nnn[nH]4)ccc2O3)nc2c(OC)cccc12
Assigned Category: upper range

Mol: COc1cccc2c(C)c(C(=O)N3CCC4(CC3)NC(=O)c3cc5ccccc5cc3O4)[nH]c12
Assigned Category: upper range

Mol: O=C1NC2(CCN(C(=O)c3ccc4[nH]nnc4c3)CC2)Oc2ccc(Br)cc21
Assigned Category: lower range

Mol: COc1ccc2c(c1)C(=O)NC1(CCN(C(=O)c3cc(OC)c4cccc(OC)c4n3)CC1)N2
Assigned Category: middle range

Mol: COc1cc(C(=O)N2CCC3(CC2)NC(=O)c2cc(Br)ccc2N3)nc2c(SC)cccc12
Assigned Category: middle range

Mol: COc1cc2c(cc1OC)C(=O)NC1(CCN(C(=O)c3cc(OC)c4cccc(OC)c4n3)CC1)N2
Assigned Category: middle range

====

- Target Under Test: hACC2 (Homo sapiens)
- Construct: delete amino acids 1-148 and add Met-Gly in front of Lys149 in the final product; His tag (C)
- Assay Remarks: [14C]bicarbonate incorporation assay, overall ACC activity
- Experimental Setup: recombinant hACC2, overall ACC activity
Measured Attribute: IC50

Mol: CCOc1ccc2c(c1)C(=O)NC1(CCN(C(=O)c3cc(OC)c4cccc(SC)c4n3)CC1)O2
Target Under Test: hACC2 (Homo sapiens)
Data Value: 25 nM
--
Mol: COc1ccc(OC)c2c1cc(C(=O)N1CCC3(CC1)NC(=O)c1cc(Br)ccc1O3)n2C
Target Under Test: hACC2 (Homo sapiens)
Data Value: 590 nM
--
Mol: COc1cc(C(=O)N2CCC3(CC2)NC(=O)c2cc(Br)ccc2O3)nc2c(SC)cccc12
Target Under Test: hACC2 (Homo sapiens)
Data Value: 110 nM
--
Mol: COc1cc(C(=O)N2CCC3(CC2)NC(=O)c2cc(OC(C)C)ccc2O3)cc2[nH]ncc12
Target Under Test: hACC2 (Homo sapiens)
Data Value: 85 nM

====

- Target Under Test: hACC1 (Homo sapiens)
- Construct: PCR primers were designed for full-length hACC1 and hACC2 using GenBank submissions AY237919 and AJ575592, respectively; His tag (C)
- Assay Remarks: [14C]bicarbonate incorporation assay, overall ACC activity
- Experimental Setup: recombinant hACC1, overall ACC activity
The label satisfied is reserved for IC50 strictly under 90 nM; not satisfied covers values equal to or above it.

Molecule: COc1cccc2c(C)c(C(=O)N3CCC4(CC3)NC(=O)c3cc(C)ccc3O4)[nH]c12 [Compound 143]
Assigned Category: not satisfied

Molecule: COc1cccc2c(C)c(C(=O)N3CCC4(CC3)NC(=O)c3cc(NC(C)=O)ccc3O4)[nH]c12 [Compound 24]
Assigned Category: not satisfied

Molecule: COc1cc2c(cc1OC)C(=O)NC1(CCN(C(=O)c3cc(OC)c4cccc(OC)c4c3)CC1)N2 [Compound 190]
Assigned Category: satisfied

Molecule: COc1cc(C(=O)N2CCC3(CC2)NC(=O)c2cc(NC(C)=O)ccc2O3)nc2c(C3CC3)cccc12 [Compound 33]
Assigned Category: satisfied

Molecule: COc1ccc2c(c1)C(=O)NC1(CCN(C(=O)c3cc(OC)c4cccc(OC)c4n3)CC1)O2 [Compound 150]
Assigned Category: satisfied

Molecule: Cc1nn(C)c2sc(C(=O)N3CCC4(CC3)NC(=O)c3cc(Br)ccc3O4)cc12 [Compound 4]
Assigned Category: not satisfied

Molecule: COc1cccc2c(C)c(C(=O)N3CCC4(CC3)NC(=O)c3cc(Br)ccc3O4)[nH]c12 [Compound 23]
Assigned Category: not satisfied

Molecule: COc1ccc(OC)c2[nH]c(C(=O)N3CCC4(CC3)NC(=O)c3cc(NC(C)=O)ccc3O4)cc12 [Compound 17]
Assigned Category: not satisfied

Molecule: COc1cc(C(=O)N2CCC3(CC2)NC(=O)c2cc(C(C)C)ccc2O3)cc2c(SC)cccc12 [Compound 179]
Assigned Category: satisfied

Molecule: COc1cc(C(=O)N2CCC3(CC2)NC(=O)c2cc(Br)ccc2O3)nc2c(C3CC3)cccc12 [Compound 32]
Assigned Category: not satisfied

Molecule: COc1cc(C(=O)N2CCC3(CC2)NC(=O)c2cc(NC(C)=O)ccc2O3)cc2c(OC)cccc12 [Compound 31]
Assigned Category: satisfied

Molecule: COc1cc(C(=O)N2CCC3(CC2)NC(=O)c2cc(OC(F)(F)F)ccc2N3)nc2c(OC)cccc12 [Compound 195]
Assigned Category: not satisfied

Molecule: COc1cc(C(=O)N2CCC3(CC2)NC(=O)c2cc(C(C)C)ccc2O3)cc2[nH]ncc12 [Compound 231]
Assigned Category: satisfied

Molecule: COc1cc(C(=O)N2CCC3(CC2)NC(=O)c2cc4ccccc4cc2O3)cc2c(OC)cccc12 [Compound 160]
Assigned Category: satisfied

Molecule: COc1ccc2c(c1)C(=O)NC1(CCN(C(=O)c3[nH]c4c(OC)cccc4c3C)CC1)O2 [Compound 151]
Assigned Category: satisfied

Molecule: COc1cc(C(=O)N2CCC3(CC2)NC(=O)c2cc(C)ccc2O3)cc2c(OC)cccc12 [Compound 145]
Assigned Category: satisfied

Molecule: COc1cc(C(=O)N2CCC3(CC2)NC(=O)c2cc(Br)ccc2O3)cc2c(OC)cccc12 [Compound 30]
Assigned Category: satisfied

Molecule: CCOc1ccc2c(c1)C(=O)NC1(CCN(C(=O)c3cc(OC)c4cccc(SC)c4n3)CC1)O2 [Compound 149]
Assigned Category: satisfied

Molecule: COc1ccc(-c2cc(C(=O)N3CCC4(CC3)NC(=O)c3ccccc3O4)n[nH]2)cc1 [Compound 87]
Assigned Category: not satisfied

Molecule: COc1ccc2c(c1)C(=O)NC1(CCN(C(=O)c3cc(OC)c4cccc(OC)c4c3)CC1)N2 [Compound 187]
Assigned Category: satisfied
